This collection of values is drawn from ChEMBL document CHEMBL4359892.

# assay.notes: Selectivity index, ratio of CC50 for human MT4 cells to EC50 for antiviral activity against HIV IIIB
# Format: toxicity
# experimental.conditions: read-out: Ratio CC50/EC50
// assign true (1) if selectivity ratio falls strictly below 100, else false (0) (ties count as false (0))

Example results:
Cc1cc(C)cc(S(=O)(=O)c2c(C(=O)NS(=O)(=O)c3ccc(F)cc3F)[nH]c3ccc(Cl)cc23)c1    true (1)
CCCS(=O)(=O)NC(=O)c1[nH]c2ccc(Cl)cc2c1S(=O)(=O)c1cc(C)cc(C)c1    true (1)
Cc1cc(C)cc(S(=O)(=O)c2c(C(=O)N[C@@H]3CCN(Cc4cccnc4)C3)[nH]c3ccc(Cl)cc23)c1    false (0)
Cc1cc(C)cc(S(=O)(=O)c2c(C(=O)NC3CN(Cc4cccnc4)C3)[nH]c3ccc(Cl)cc23)c1    false (0)

Q: # TODO verify selectivity ratio < 100 strictly for this compound: Cc1cc(C)cc(S(=O)(=O)c2c(C(=O)N[C@@H]3CCN(Cc4n[nH]c(=O)n4C)C3)[nH]c3ccc(Cl)cc23)c1
Ans: false (0)

Q: # TODO verify selectivity ratio < 100 strictly for this compound: Cc1cc(C)cc(S(=O)(=O)c2c(C(=O)N[C@H]3CCN(S(C)(=O)=O)C3)[nH]c3ccc(Cl)cc23)c1
Ans: false (0)

Q: # TODO verify selectivity ratio < 100 strictly for this compound: Cc1cc(C)cc(S(=O)(=O)c2c(C(=O)N[C@H]3CCN(Cc4ccccc4C#N)C3)[nH]c3ccc(Cl)cc23)c1
Ans: false (0)

Q: # TODO verify selectivity ratio < 100 strictly for this compound: Cc1cc(C)cc(S(=O)(=O)c2c(C(=O)NS(C)(=O)=O)[nH]c3ccc(Cl)cc23)c1
Ans: false (0)

Q: # TODO verify selectivity ratio < 100 strictly for this compound: Cc1cc(C#N)cc(C)c1Oc1nc(Nc2ccc(C#N)cc2)nc(N)c1Br
Ans: false (0)

Q: # TODO verify selectivity ratio < 100 strictly for this compound: Cc1cc(C)cc(S(=O)(=O)c2c(C(=O)N[C@@H]3CCN(S(C)(=O)=O)C3)[nH]c3ccc(Cl)cc23)c1
Ans: false (0)

Q: # TODO verify selectivity ratio < 100 strictly for this compound: Cc1cc(C)cc(S(=O)(=O)c2c(C(=O)NC3CN(Cc4ccccc4F)C3)[nH]c3ccc(Cl)cc23)c1
Ans: false (0)

Q: # TODO verify selectivity ratio < 100 strictly for this compound: Cc1cc(C)cc(S(=O)(=O)c2c(C(=O)NS(=O)(=O)C3CC3)[nH]c3ccc(Cl)cc23)c1
Ans: true (1)

Q: # TODO verify selectivity ratio < 100 strictly for this compound: Cc1cc(C)cc(S(=O)(=O)c2c(C(=O)NC3CN(CC(N)=O)C3)[nH]c3ccc(Cl)cc23)c1
Ans: false (0)

Q: # TODO verify selectivity ratio < 100 strictly for this compound: Cc1cc(C)cc(S(=O)(=O)c2c(C(=O)NS(=O)(=O)c3ccccc3)[nH]c3ccc(Cl)cc23)c1
Ans: true (1)

====

# Test system: Human immunodeficiency virus 1
# assay.notes: Antiviral activity against drug resistant HIV-1 harboring reverse transcriptase Y181C mutant infected in human MT4 cells assessed as reduction in virus-induced cytopathic effect incubated for 5 days by MTT assay
# Type: functional, organism-based
# experimental.conditions: Human immunodeficiency virus 1, MT4, 120 h
pEC50: −log10 of the molar value.
Decision: pEC50 compared against 5; not below it gives yes, below it gives no.

CCOP(=O)(CCNC(=O)c1[nH]c2ccc(Cl)cc2c1S(=O)(=O)c1cc(C)cc(C)c1)OCC    yes
O=C1Nc2ccc(Cl)cc2[C@@](C#CC2CC2)(C(F)(F)F)O1    yes
CCCS(=O)(=O)NC(=O)c1[nH]c2ccc(Cl)cc2c1S(=O)(=O)c1cc(C)cc(C)c1    no
Cc1cc(C)cc(S(=O)(=O)c2c(C(=O)NS(=O)(=O)C3CC3)[nH]c3ccc(Cl)cc23)c1    no

Q: Hi team, for Cc1cc(C)cc(S(=O)(=O)c2c(C(=O)NS(=O)(=O)c3ccc(F)cc3F)[nH]c3ccc(Cl)cc23)c1 , is the recorded pEC50 at or above 5?
Ans: no

Q: Hi team, for Cc1cn([C@H]2C[C@H](N=[N+]=[N-])[C@@H](CO)O2)c(=O)[nH]c1=O , is the recorded pEC50 at or above 5?
Ans: yes

Q: Hi team, for Cc1cc(C#N)cc(C)c1Oc1nc(Nc2ccc(C#N)cc2)nc(N)c1Br , is the recorded pEC50 at or above 5?
Ans: yes

Q: Hi team, for Cc1ccnc2c1NC(=O)c1cccnc1N2C1CC1 , is the recorded pEC50 at or above 5?
Ans: no
